assay: Retention time of the compound by chromatography; assay type: physicochemical
Readout Kind: Retention_time (min)
Just the number please, in min, no unit attached.

Kindly note the recorded Retention_time for C[C@H](CC(=O)C[C@@H](C)[C@H]1C[C@H](O)[C@@]2(C)C3=C(C(=O)C[C@]12C)[C@@]1(C)CC[C@H](O)C(C)(C)[C@@H]1C[C@@H]3O)C(=O)O , which is 49.8

Kindly note the recorded Retention_time for C/C=C1\[C@H](O[C@@H]2O[C@H](CO)[C@@H](O)[C@H](O)[C@H]2O)OC=C(C(=O)OC)[C@H]1CC(=O)OC[C@H]1O[C@@H](OCCc2ccc(O)cc2)[C@H](O)[C@@H](O)[C@@H]1O , which is 13.5

Kindly note the recorded Retention_time for C[C@H](CCC=C(CO)CO)[C@H]1CC[C@@]2(C)C3=CC[C@H]4C(C)(C)C(=O)CC[C@]4(C)C3=CC[C@]12C , which is 10.3

Kindly note the recorded Retention_time for CC(=O)O[C@@H]1C(=O)C2=C(C(=O)C[C@H]3C(C)(C)[C@@H](O)CC[C@]23C)[C@]2(C)C(=O)C[C@H]([C@H](C)CC(=O)CC(C)C(=O)O)[C@@]12C (stereo partly specified) , which is 51.1

Kindly note the recorded Retention_time for COc1ccc(-c2coc3cc(O)ccc3c2=O)cc1O , which is 34.5

Kindly note the recorded Retention_time for CC(CC(=O)C[C@@H](C)[C@H]1CC(=O)[C@@]2(C)C3=C(C(=O)C[C@]12C)[C@@]1(C)CCC(=O)C(C)(C)[C@@H]1C[C@@H]3O)C(=O)O (stereo partly specified) , which is 45.7

Kindly note the recorded Retention_time for C[C@@H]1CC[C@@]2(OC1)O[C@H]1C[C@H]3[C@@H]4CC=C5C[C@@H](O[C@@H]6O[C@H](CO)[C@@H](O)[C@H](O[C@@H]7O[C@H](CO)[C@@H](O)[C@H](O)[C@H]7O)[C@H]6O)CC[C@]5(C)[C@H]4CC[C@]3(C)[C@H]1[C@@H]2C , which is 16.9

Kindly note the recorded Retention_time for COc1ccc(-c2coc3cc(O[C@@H]4O[C@H](CO)[C@@H](O)[C@H](O)[C@H]4O)ccc3c2=O)cc1 , which is 39.3

Kindly note the recorded Retention_time for COc1ccc(-c2coc3cc(O)ccc3c2=O)cc1 , which is 48.5

Kindly note the recorded Retention_time for O=c1cc(-c2ccc(O)cc2)oc2cc(O[C@@H]3O[C@H](CO)[C@@H](O)[C@H](O)[C@H]3O)cc(O)c12 , which is 28.6

Kindly note the recorded Retention_time for CC(CC(=O)C[C@@H](C)[C@H]1CC(=O)[C@@]2(C)C3=C(C(=O)[C@@H](O)[C@]12C)[C@@]1(C)CC[C@H](O)C(C)(C)[C@@H]1C[C@@H]3O)C(=O)O (stereo partly specified) , which is 46.5

###

test: Binding affinity to Bcl-xL (unknown origin); design: species or system Homo sapiens
Reported pKd values follow for various molecules
// returns pKd (minus log10 of molar concentration), number only

Example molecules with recorded pKd:
COc1ccc(-c2coc3cc(O)ccc3c2=O)cc1 [FORMONONETIN]    5.11
CC(C)(O)[C@@H]1CC[C@](C)([C@H]2[C@@H](O)C[C@@]3(C)[C@@H]4C[C@H](O[C@@H]5O[C@H](CO)[C@@H](O)[C@H](O)[C@H]5O)[C@H]5C(C)(C)[C@@H](O[C@@H]6OC[C@@H](O)[C@H](O)[C@H]6O)CC[C@@]56C[C@@]46CC[C@]23C)O1    9.90
O=c1cc(-c2ccc(O)cc2)oc2cc(O[C@@H]3O[C@H](CO)[C@@H](O)[C@H](O)[C@H]3O)cc(O)c12 [APIGETRIN]    7.12
O=c1cc(-c2ccc(O)c(O)c2)oc2cc(O[C@@H]3O[C@H](CO)[C@@H](O)[C@H](O)[C@H]3O)cc(O)c12 [GALUTEOLIN]    8.00
COc1ccc(-c2coc3cc(O[C@@H]4O[C@H](CO)[C@@H](O)[C@H](O)[C@H]4O)ccc3c2=O)cc1 [ONONIN]    6.77
C/C=C1\[C@H](O[C@@H]2O[C@H](CO)[C@@H](O)[C@H](O)[C@H]2O)OC=C(C(=O)OC)[C@H]1CC(=O)OC[C@H]1O[C@@H](OCCc2ccc(O)cc2)[C@H](O)[C@@H](O)[C@@H]1O    8.62
O=C(NS(=O)(=O)c1ccc(NCCSc2ccccc2)c([N+](=O)[O-])c1)c1ccc(-c2ccc(F)cc2)cc1    6.09

// next entry
Kindly note the recorded pKd for COc1ccc(-c2coc3cc(O[C@@H]4O[C@H](CO)[C@@H](O)[C@H](O)[C@H]4O)ccc3c2=O)cc1O , which is 6.96
